Hey, just so you know, these numbers are from the supplement of paper PMC11316812.

System: MCF7;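 also: secreted proteins added to cultured cells, EdU pulse at the end, nuclei found by Hoechst imaging, EdU status from nuclear versus surrounding ring intensity ratio, PBS as neutral control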
protocol details: percentage of EdU-negative (G0-arrested) nuclei per well, 72 h; higher = more G0 arrest
protocol conditions: protein concentration 0.0225 µM; reference: sequence is the full UniProt precursor, the tested protein was the secreted form or ectodomain
Record form. Attribute: percentage of EdU-negative. Fill in for each entry.
Report only the number, with the unit % understood.

### Prompt Give the measured percentage of EdU-negative of MAGGRHRRVVGTLHLLLLVAALPWASRGVSPSASAWPEEKNYHQPAILNSSALRQIAEGTSISEMWQNDLQPLLIERYPGSPGSYAARQHIMQRIQRLQADWVLEIDTFLSQTPYGYRSFSNIISTLNPTAKRHLVLACHYDSKYFSHWNNRVFVGATDSAVPCAMMLELARALDKKLLSLKTVSDSKPDLSLQLIFFDGEEAFLHWSPQDSLYGSRHLAAKMASTPHPPGARGTSQLHGMDLLVLLDLIGAPNPTFPNFFPNSARWFERLQAIEHELHELGLLKDHSLEGRYFQNYSYGGVIQDDHIPFLRRGVPVLHLIPSPFPEVWHTMDDNEENLDESTIDNLNKILQVFVLEYLHL .
### Response 25.8

### Prompt Give the measured percentage of EdU-negative of MEPLRLLILLFVTELSGAHNTTVFQGVAGQSLQVSCPYDSMKHWGRRKAWCRQLGEKGPCQRVVSTHNLWLLSFLRRWNGSTAITDDTLGGTLTITLRNLQPHDAGLYQCQSLHGSEADTLRKVLVEVLADPLDHRDAGDLWFPGESESFEDAHVEHSISRSLLEGEIPFPPTSILLLLACIFLIKILAASALWAAAWHGQKPGTHPPSELDCGHDPGYQLQTLPGLRDT [Q9NZC2] .
### Response 23.6

### Prompt Give the measured percentage of EdU-negative of MDMAWQMMQLLLLALVTAAGSAQPRSARARTDLLNVCMNAKHHKTQPSPEDELYGQCSPWKKNACCTASTSQELHKDTSRLYNFNWDHCGKMEPTCKRHFIQDSCLYECSPNLGPWIRQVNQSWRKERILNVPLCKEDCERWWEDCRTSYTCKSNWHKGWNWTSGINECPAGALCSTFESYFPTPAALCEGLWSHSFKVSNYSRGSGRCIQMWFDSAQGNPNEEVAKFYAAAMNAGAPSRGIIDS [A0A087WXL1] .
### Response 25.4

### Prompt Give the measured percentage of EdU-negative of MASHSGPSTSVLFLFCCLGGWLASHTLPVRLLRPSDDVQKIVEELQSLSKMLLKDVEEEKGVLVSQNYTLPCLSPDAQPPNNIHSPAIRAYLKTIRQLDNKSVIDEIIEHLDKLIFQDAPETNISVPTDTHECKRFILTISQQFSECMDLALKSLTSGAQQATT [Q6EBC2] .
### Response 26.6

### Prompt Give the measured percentage of EdU-negative of MAAEPLTELEESIETVVTTFFTFARQEGRKDSLSVNEFKELVTQQLPHLLKDVGSLDEKMKSLDVNQDSELKFNEYWRLIGELAKEIRKKKDLKIRKK .
### Response 27.3

### Prompt Give the measured percentage of EdU-negative of MLALLCSCLLLAAGASDAWTGEDSAEPNSDSAEWIRDMYAKVTEIWQEVMQRRDDDGALHAACQVQPSATLDAAQPRVTGVVLFRQLAPRAKLDAFFALEGFPTEPNSSSRAIHVHQFGDLSQGCESTGPHYNPLAVPHPQHPGDFGNFAVRDGSLWRYRAGLAASLAGPHSIVGRAVVVHAGEDDLGRGGNQASVENGNAGRRLACCVVGVCGPGLWERQAREHSERKKRRRESECKAA .
### Response 23.8
